- tested_on: T1, Cynomolgus monkey CD98 ECD with C-terminal His-tag (cynomolgus monkey, UniProt P08195 105-529 (human entry))
- T1 construct: The entry includes the linker and the polyhistidine tag; also called cyCD98 ECD
- T1 chain: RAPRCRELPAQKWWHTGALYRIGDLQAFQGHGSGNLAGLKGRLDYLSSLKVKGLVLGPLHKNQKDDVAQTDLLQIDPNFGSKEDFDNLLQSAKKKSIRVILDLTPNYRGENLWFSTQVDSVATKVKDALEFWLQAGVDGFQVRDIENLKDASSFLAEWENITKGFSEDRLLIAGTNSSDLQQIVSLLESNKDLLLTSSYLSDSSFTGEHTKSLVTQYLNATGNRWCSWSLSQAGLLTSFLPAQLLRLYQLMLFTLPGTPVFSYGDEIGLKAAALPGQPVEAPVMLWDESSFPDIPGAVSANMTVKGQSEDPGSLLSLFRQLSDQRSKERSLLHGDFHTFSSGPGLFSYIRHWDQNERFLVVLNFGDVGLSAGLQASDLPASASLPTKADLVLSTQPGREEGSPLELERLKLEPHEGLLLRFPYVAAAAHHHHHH
- experiment_summary: SPR (Biacore), antibody captured on anti-Fc surface, CD98 ECD in solution
measurement_name: koff (s⁻¹)

binder="huAb15v6 (antibody, V domains shown, Humanized, further engineered clone of chAb15, converted to IgG and expressed as a full-length antibody) VH: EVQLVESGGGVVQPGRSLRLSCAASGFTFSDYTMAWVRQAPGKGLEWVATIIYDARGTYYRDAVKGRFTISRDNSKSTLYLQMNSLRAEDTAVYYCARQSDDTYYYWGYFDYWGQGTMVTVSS VL: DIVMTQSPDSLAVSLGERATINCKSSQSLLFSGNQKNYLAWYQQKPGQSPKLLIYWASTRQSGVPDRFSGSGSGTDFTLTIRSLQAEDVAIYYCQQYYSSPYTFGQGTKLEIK" unit_tag=s⁻¹ quantitative_readout=0.00049
binder="huAb15v1 (antibody, V domains shown, Humanized, further engineered clone of chAb15, converted to IgG and expressed as a full-length antibody) VH: EVQLVESGGGVVQPGRSLRLSCAASGFTFSDYTMAWVRQAPGKGLEWVATIIYSGRGTYYRDAVKGRFTISRDNSKSTLYLQMNSLRAEDTAVYYCARQSDHTYYYWGYFDYWGQGTMVTVSS VL: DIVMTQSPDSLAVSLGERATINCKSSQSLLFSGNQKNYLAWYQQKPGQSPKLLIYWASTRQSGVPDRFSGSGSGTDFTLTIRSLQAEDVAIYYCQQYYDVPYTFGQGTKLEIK" unit_tag=s⁻¹ quantitative_readout=2.6e-05

Values were extracted from patent US20200147235A1.
